# target under test: T1, full-length recombinant human PAD4 (human, UniProt Q9UM07 1-663)
# T1 construct: Full-length recombinant; also called peptidylarginine deiminase 4
# T1 sequence (Q9UM07 whole entry): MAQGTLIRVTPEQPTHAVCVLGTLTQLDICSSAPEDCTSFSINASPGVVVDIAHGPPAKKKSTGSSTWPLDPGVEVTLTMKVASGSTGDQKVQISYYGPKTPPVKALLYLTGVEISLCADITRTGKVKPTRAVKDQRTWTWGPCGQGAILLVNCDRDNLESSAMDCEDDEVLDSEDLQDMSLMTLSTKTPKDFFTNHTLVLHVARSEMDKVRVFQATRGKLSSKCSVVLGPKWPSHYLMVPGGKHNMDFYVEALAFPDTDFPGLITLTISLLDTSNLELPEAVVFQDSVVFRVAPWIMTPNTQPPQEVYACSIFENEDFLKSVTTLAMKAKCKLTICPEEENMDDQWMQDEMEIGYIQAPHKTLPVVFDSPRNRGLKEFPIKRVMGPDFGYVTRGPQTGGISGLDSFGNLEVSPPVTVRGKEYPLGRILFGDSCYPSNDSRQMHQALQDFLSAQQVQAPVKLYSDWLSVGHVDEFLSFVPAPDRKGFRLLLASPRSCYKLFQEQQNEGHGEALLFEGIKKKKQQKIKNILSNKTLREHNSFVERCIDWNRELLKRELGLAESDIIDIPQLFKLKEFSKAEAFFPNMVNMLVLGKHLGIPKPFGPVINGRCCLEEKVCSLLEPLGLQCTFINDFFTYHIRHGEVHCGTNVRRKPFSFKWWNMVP
# assay text: ELISA, immobilized human PAD4
result type: O.D. 490/630 at 1 µg/mL
Keep it simple and answer with nothing but the number.

humanized anti-PAD4 antibody derived from G8, VH H4.32 / VL L4.17 (antibody, IgG1, V domains shown, IgG1 kappa; also called G8 H4.32/L4.17) VH: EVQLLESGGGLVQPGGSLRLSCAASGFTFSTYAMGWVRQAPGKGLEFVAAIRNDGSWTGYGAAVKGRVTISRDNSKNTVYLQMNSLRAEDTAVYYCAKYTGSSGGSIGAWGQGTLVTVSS VL: SYELTQPPSVSVSPGQTARITCSGGNRNYYYGWYQQKPGQAPVTVIYANDKRPSGIPERFSGSTSGNTTTLTISGVQAEDEADYYCGTADTGKYVFGGGTKLTVLG; 1.82
humanized anti-PAD4 antibody derived from H7, VH H4.15 / VL L4.17 (antibody, IgG1, V domains shown, IgG1 kappa; also called H7 H4.15/L4.17) VH: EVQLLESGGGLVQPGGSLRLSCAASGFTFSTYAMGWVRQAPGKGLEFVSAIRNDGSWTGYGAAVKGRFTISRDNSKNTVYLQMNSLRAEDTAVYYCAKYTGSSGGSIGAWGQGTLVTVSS VL: SYELTQPPSVSVSPGQTARITCSGGSGRYYYGWYQQKPGQAPVTVIYSSTHRPSGIPERFSGSTSGNTTTLTISGVQAEDEADYYCGTADSSSYVFGGGTKLTVLG; 1.77

Attention now shifts to the item below.
Could you tell me which O.D. 490/630 at 1 µg/mL is on file for humanized anti-PAD4 antibody derived from G8, VH H4.32 / VL L4.00 (antibody, IgG1, V domains shown, IgG1 kappa; also called G8 H4.32/L4.00) VH: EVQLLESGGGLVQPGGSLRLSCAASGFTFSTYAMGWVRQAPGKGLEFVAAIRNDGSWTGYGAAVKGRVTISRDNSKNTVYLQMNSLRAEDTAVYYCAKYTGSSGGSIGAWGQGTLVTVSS VL: SYELTQPPSVSVSPGQTARITCSGGNRNYYYGWYQQKPGQAPVLVIYANDKRPSGIPERFSGSSSGTTVTLTISGVQAEDEADYYCGTADTGKYVFGGGTKLTVLG ?
1.87
